target: CDK18/Cyclin Y (Homo sapiens, UniProt Q07002); assay: NanoBRET live-cell target engagement, CDK18-NanoLuc/Cyclin Y in HEK-293; format: binding; settings: average (± SEM where n=3); read-out: CDK18/Y IC50
Sequence (Q07002 whole entry): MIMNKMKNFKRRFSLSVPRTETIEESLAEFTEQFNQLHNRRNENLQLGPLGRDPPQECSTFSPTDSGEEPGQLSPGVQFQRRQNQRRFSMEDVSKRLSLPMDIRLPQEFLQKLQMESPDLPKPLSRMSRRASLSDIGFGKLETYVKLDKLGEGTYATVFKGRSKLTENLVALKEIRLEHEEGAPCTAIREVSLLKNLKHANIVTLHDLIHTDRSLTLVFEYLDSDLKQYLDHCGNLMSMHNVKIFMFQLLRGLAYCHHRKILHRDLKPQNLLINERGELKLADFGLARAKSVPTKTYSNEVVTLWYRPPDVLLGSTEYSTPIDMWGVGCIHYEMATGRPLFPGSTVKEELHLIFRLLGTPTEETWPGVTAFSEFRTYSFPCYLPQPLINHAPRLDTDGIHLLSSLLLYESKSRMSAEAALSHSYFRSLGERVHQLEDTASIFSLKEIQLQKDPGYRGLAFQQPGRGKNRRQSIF
Sequence (Q8ND76 whole entry partner): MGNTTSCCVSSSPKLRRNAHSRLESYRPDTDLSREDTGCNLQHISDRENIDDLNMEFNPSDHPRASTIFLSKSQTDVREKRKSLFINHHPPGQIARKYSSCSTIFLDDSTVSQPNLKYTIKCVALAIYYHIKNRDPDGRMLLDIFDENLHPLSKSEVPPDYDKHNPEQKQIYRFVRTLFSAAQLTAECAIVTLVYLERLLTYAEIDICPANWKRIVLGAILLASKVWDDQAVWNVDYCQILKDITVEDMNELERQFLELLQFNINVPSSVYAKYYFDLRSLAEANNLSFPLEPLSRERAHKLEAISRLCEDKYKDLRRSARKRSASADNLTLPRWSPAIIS
readout_name: IC50 (nM)
Numbers only, in nM.

[
  {
    "compound": "CN1C/C=C/CCOc2cccc(c2)-c2ccnc(n2)Nc2cccc(c2)C1 [SB1317]",
    "IC50, nM": 82
  }
]

# ---- query compound ----
COCCN1CCN(Cc2ccc(-c3n[nH]c4c3C(=O)c3c(NC(=O)NN5CCOCC5)cccc3-4)cc2)CC1 [RGB286638] on CDK18/Cyclin Y (Homo sapiens, UniProt Q07002) gives IC50 = 10
